- assay-target: plasmepsin II from Plasmodium falciparum (Plm II) (Plasmodium falciparum)
- Construct: made in house; host or cells: Escherichia coli
- Sequence (P46925 125-453): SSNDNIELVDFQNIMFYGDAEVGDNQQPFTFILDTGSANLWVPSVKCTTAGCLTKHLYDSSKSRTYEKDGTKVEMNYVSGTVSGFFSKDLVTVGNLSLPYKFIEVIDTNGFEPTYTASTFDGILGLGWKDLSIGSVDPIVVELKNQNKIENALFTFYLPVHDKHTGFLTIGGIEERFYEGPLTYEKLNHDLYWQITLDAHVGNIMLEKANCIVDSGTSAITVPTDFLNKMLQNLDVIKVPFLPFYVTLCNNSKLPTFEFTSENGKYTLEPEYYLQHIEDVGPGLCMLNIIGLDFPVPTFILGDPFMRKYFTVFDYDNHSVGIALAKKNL
- measurement-protocol: Plasmepsin II inhibition assay, hydrolysis of chromogenic substrate
- Assay type: biochemical
- protocol-conditions: read-out: Ki (Plasmepsin II), unit inferred
measured-attribute: Ki

May I ask what Ki has been recorded for Cc1ccccc1CNC(=O)[C@H]1N(C(=O)[C@@H](O)[C@H](Cc2ccccc2)NC(=O)COc2c(C)cccc2C)CSC1(C)C [KNI-840] ? ~20 nM

* * *

I'd appreciate it if you could supply Ki values for the items below.
- assay-target: human Cathepsin D (Homo sapiens, UniProt P07339)
- Construct: purchased
- Sequence (P07339 65-412): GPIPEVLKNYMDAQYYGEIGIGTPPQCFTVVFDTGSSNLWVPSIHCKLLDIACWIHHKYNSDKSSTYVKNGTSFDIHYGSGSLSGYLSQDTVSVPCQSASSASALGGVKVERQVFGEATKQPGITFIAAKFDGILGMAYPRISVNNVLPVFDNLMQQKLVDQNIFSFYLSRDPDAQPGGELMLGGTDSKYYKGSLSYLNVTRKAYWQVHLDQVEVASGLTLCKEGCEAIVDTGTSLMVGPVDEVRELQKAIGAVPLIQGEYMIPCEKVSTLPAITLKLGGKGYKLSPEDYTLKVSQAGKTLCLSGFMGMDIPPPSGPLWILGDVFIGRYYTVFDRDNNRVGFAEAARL
- measurement-protocol: Cathepsin D inhibition assay, hydrolysis of chromogenic substrate
- Type: biochemical
- protocol-conditions: Table 2; read-out: Ki Cathepsin D
Answer with a number only, understood to be in nM.

May I ask what Ki has been recorded for Cc1cccc(C)c1OCC(=O)N[C@@H](Cc1ccccc1)[C@H](O)C(=O)N1CSC(C)(C)[C@H]1C(=O)N[C@H]1CCc2ccccc21 [KNI-10026] ? 105

What do you have for Cc1cccc(C)c1OCC(=O)N[C@@H](Cc1ccccc1)[C@H](O)C(=O)N1CSC(C)(C)[C@H]1C(=O)N[C@H](C)c1ccccc1 [KNI-10030] ? 111

What do you have for Cc1ccccc1CNC(=O)[C@H]1N(C(=O)[C@@H](O)[C@H](Cc2ccccc2)NC(=O)COc2c(C)cccc2C)CSC1(C)C [KNI-840] ? 80
